# assayed-system: Cellular tumor antigen p53 (Homo sapiens) (UniProt P04637)
# Sequence (P04637 whole entry, looked up): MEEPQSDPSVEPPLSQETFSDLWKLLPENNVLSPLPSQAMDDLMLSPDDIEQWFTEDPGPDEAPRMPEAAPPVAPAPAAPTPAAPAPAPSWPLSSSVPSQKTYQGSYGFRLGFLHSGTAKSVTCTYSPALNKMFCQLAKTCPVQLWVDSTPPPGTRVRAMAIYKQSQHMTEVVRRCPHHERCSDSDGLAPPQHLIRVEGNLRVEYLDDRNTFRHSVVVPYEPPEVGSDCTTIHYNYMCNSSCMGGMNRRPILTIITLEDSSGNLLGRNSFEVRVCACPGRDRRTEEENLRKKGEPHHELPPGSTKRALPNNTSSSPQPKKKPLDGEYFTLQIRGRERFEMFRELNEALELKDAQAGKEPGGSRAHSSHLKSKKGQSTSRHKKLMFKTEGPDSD
# protocol-text: p53 stabilisation in HPV-positive human cells, imaging, p53-positive nuclei imaging, 24 h, 48 h (AID 1508601)
# test-conditions: 24/48 h, Library stock concentration: 3.33 mM, stronger effect = higher value
The whole screen tested about 5,700 compounds, of which about 85 (1%) were called active. The list comes from a sample in which actives are over-represented; it also holds close analogues and randomly drawn compounds.
# maps each entry to its p53-positive nuclei, normalised
Answer in %, number only, no unit symbol.

{"molecule": "C[C@]12NC(Cc3ccccc31)c1ccccc12", "p53-positive nuclei, normalised, %": -0.107}
{"molecule": "CC=C(C)C(=O)NC(c1ccccc1)C(O)C(=O)OC1C[C@@]2(O)C(OC(=O)c3ccccc3)[C@@H]3[C@]4(OC(C)=O)COC4CC(O)[C@@]3(C)C(=O)C(OC(C)=O)C(=C1C)C2(C)C (stereo partly specified)", "p53-positive nuclei, normalised, %": 1.63}
{"molecule": "O=c1[nH]c2ccc(Cl)cc2c(NC2CN3CCC2CC3)c1-c1nc2ccccc2[nH]1 (stereo unspecified)", "p53-positive nuclei, normalised, %": 34}
{"molecule": "CCCCCCCCCCCC[N+](C)(C)CCOc1ccccc1", "p53-positive nuclei, normalised, %": -0.174}
{"molecule": "Cc1sc2c(c1C)C(c1ccc(Cl)cc1)=NC(CC(=O)Nc1ccc(O)cc1)c1nnc(C)n1-2 (stereo unspecified)", "p53-positive nuclei, normalised, %": 3.67}

Next, consider the following molecule.
Prompt line: Checklist item: p53-positive nuclei, normalised tested on Cellular tumor antigen p53 (Homo sapiens) (UniProt P04637), entry N#CC(OC1OC(COC2OC(CO)C(O)C(O)C2O)C(O)C(O)C1O)c1ccccc1 (stereo unspecified) , value?
Response line: 0.141

====

Measured p53-positive nuclei, normalised by item
# assayed-system: Cellular tumor antigen p53 (Homo sapiens)
# protocol-text: p53 stabilisation in HPV-positive human cells, imaging, p53-positive nuclei imaging, 24 h, 48 h (AID 1508601)
# test-conditions: 24/48 h, Library stock concentration: 4.6 uM, stronger effect = higher value
Among all 5,700 compounds or so, about 85 (1%) were called active. Many of the other results were omitted from the sample, so actives are more common in it than they were.
Only the number, expressed in %, is required.

The following compounds have reported results that may help.
{"compound": "CC[n+]1c(-c2ccccc2)c2cc(N)ccc2c2ccc(N)cc21", "observed-result": -0.0128}
{"compound": "CN1C(=O)[C@@]23C[C@]4([C@]56C[C@@]78SS[C@@](CO)(C(=O)N7[C@@H]5Nc5ccccc56)N(C)C8=O)c5ccccc5N[C@H]4N2C(=O)[C@]1(CO)SS3", "observed-result": 0.185}
{"compound": "NOCCC(N)C(=O)O (stereo not given)", "observed-result": -0.0486}
{"compound": "CC1=CC(=O)c2c(O)cccc2C1=O", "observed-result": 0.131}

Prompt line: Any idea what p53-positive nuclei, normalised was measured for CC1OC(O[C@H]2CC[C@@]3(C)[C@@H](CC[C@@H]4[C@H]3CC[C@]3(C)[C@@H](C5=CC(=O)OC5)CC[C@]43O)C2)CC(O)C1O (stereo not given in full) ?
Response line: 5.96

====

# assayed-system: Cellular tumor antigen p53 (Homo sapiens)
# protocol-text: p53 stabilisation in HPV-positive human cells, imaging, p53-positive nuclei imaging, 24 h, 48 h (AID 1508601)
# test-conditions: 24/48 h, measured here: p53 positive nuclei at 24 h, Library stock concentration: 41 uM, stronger effect = higher value
Among all 5,700 compounds or so, about 85 (1%) were called active. This is one part of a sample in which actives are shown more often than they occur.
// label = yes if p53-positive nuclei, normalised is not less than 0.08%, otherwise no

Prompt line: Please check the record CC1OC(O[C@H]2CC[C@@]3(C)[C@@H](CC[C@@H]4[C@H]3CC[C@]3(C)[C@@H](C5=CC(=O)OC5)CC[C@]43O)C2)CC(O)C1O (stereo not given in full) and state if its p53-positive nuclei, normalised is at or above 0.08%.
Response line: yes

Prompt line: Now this one: CN1C(=O)[C@@]23C[C@]4([C@]56C[C@@]78SS[C@@](CO)(C(=O)N7[C@@H]5Nc5ccccc56)N(C)C8=O)c5ccccc5N[C@H]4N2C(=O)[C@]1(CO)SS3
Response line: yes

Prompt line: Note, next up: CC[n+]1c(-c2ccccc2)c2cc(N)ccc2c2ccc(N)cc21
Response line: yes

Prompt line: Same for NOCCC(N)C(=O)O (stereo not given)
Response line: no

Prompt line: And for OC1CN2CCC(O)[C@H]2C(O)C1O (stereo not given in full) ?
Response line: yes
